# Tested on: A. niger MMX 0624 ATCC 16888
# Assay comment: MIC/MEC assay (CLSI microdilution)
# Type: cell-based
# Run parameters: RPMI plus 0.002% Tween-80; 48 hr
# Description: Aureobasidin and test compounds (i.e., AbA derivatives of the present invention) were received from Kalexsyn, Inc. (Kalamazoo, Mich.) as powder and were stored at 4° C. until the day of assay. […] amphotericin was obtained from Sigma Aldrich and stored under like conditions. […] Ethanol (95%) was used as a solvent and diluent for all AbA compounds. Amphotericin B was tested from 0.06-64 μg/mL. […]
Numbered stars: 1 amine (or outer) side, 2 acyl side, 3 side chain; on linkers, the order of the positions; unused ones are H or OH. Square brackets hold non-standard residues; d marks the D form. Peptide text beside a SMILES is read from it. X13 = CN([C@@H](Cc1cccc(-c2ccc(N3CCN(C(=O)OC(C)(C)C)CC3)nc2)c1)C(=O)[*:2])[*:1]; X19 = CN([C@@H](Cc1cccc(-c2ccc(OCc3ccccc3)cc2)c1)C(=O)[*:2])[*:1]; X28 = CN([C@@H](Cc1cccc(-c2ccc(C(F)(F)F)cc2)c1)C(=O)[*:2])[*:1]; X34 = CC[C@@H](C)[C@@H](O[*:1])C(=O)[*:2]; Hmp(2R,3S) = CC[C@H](C)[C@@H](O)C(=O)O; NMeVal(β-OH) = CN[C@H](C(=O)O)C(C)(C)O; NMeF = CN[C@@H](Cc1ccccc1)C(=O)O; aIle = CC[C@@H](C)[C@H](N)C(=O)O; NMeV = CN[C@H](C(=O)O)C(C)C
MEC reference

In: For the compound shown here, CC[C@H](C)[C@@H]1NC(=O)[C@@H]2CCCN2C(=O)[C@H](Cc2cccc(-c3ccc(C(F)(F)F)cc3)c2)N(C)C(=O)[C@H](Cc2ccccc2)NC(=O)[C@H](C(C)C)N(C)C(=O)[C@@H]([C@@H](C)CC)OC(=O)[C@H](C(C)(C)O)N(C)C(=O)[C@H](CC(C)C)NC(=O)[C@H](C(C)C)N(C)C1=O [Compound 3] (cyclo(F[X28]PI[NMeV]L[NMeVal(β-OH)][Hmp(2R,3S)][NMeV])) , give the reported MEC.
Out: 1/1 μg/mL

In: Request the reported MEC associated with CC[C@@H](C)[C@@H]1NC(=O)[C@@H]2CCCN2C(=O)[C@H](Cc2ccccc2)N(C)C(=O)[C@H](Cc2ccccc2)NC(=O)[C@H](C(C)C)N(C)C(=O)[C@@H]([C@H](C)CC)OC(=O)[C@H](C(C)(C)O)N(C)C(=O)[C@H](CC(C)C)NC(=O)[C@H](C(C)C)N(C)C1=O [Aureobasidin A, reference compound] (cyclo(F[NMeF]P[aIle][NMeV]L[NMeVal(β-OH)][X34][NMeV]))
Out: >64/>64 μg/mL

In: // MEC lookup, key: CC[C@H](C)[C@@H]1NC(=O)[C@@H]2CCCN2C(=O)[C@H](Cc2cccc(-c3ccc(OCc4ccccc4)cc3)c2)N(C)C(=O)[C@H](Cc2ccccc2)NC(=O)[C@H](C(C)C)N(C)C(=O)[C@@H]([C@@H](C)CC)OC(=O)[C@H](C(C)(C)O)N(C)C(=O)[C@H](CC(C)C)NC(=O)[C@H](C(C)C)N(C)C1=O [Compound 13] (cyclo(F[X19]PI[NMeV]L[NMeVal(β-OH)][Hmp(2R,3S)][NMeV]))
Out: 2 µg/mL

In: Entry under review: CC[C@H](C)[C@@H]1NC(=O)[C@@H]2CCCN2C(=O)[C@H](Cc2cccc(-c3ccc(N4CCN(C(=O)OC(C)(C)C)CC4)nc3)c2)N(C)C(=O)[C@H](Cc2ccccc2)NC(=O)[C@H](C(C)C)N(C)C(=O)[C@@H]([C@@H](C)CC)OC(=O)[C@H](C(C)(C)O)N(C)C(=O)[C@H](CC(C)C)NC(=O)[C@H](C(C)C)N(C)C1=O [Compound 26] (cyclo(F[X13]PI[NMeV]L[NMeVal(β-OH)][Hmp(2R,3S)][NMeV])) . Reported MEC?
Out: 2/2 μg/mL
